Sequence of the target: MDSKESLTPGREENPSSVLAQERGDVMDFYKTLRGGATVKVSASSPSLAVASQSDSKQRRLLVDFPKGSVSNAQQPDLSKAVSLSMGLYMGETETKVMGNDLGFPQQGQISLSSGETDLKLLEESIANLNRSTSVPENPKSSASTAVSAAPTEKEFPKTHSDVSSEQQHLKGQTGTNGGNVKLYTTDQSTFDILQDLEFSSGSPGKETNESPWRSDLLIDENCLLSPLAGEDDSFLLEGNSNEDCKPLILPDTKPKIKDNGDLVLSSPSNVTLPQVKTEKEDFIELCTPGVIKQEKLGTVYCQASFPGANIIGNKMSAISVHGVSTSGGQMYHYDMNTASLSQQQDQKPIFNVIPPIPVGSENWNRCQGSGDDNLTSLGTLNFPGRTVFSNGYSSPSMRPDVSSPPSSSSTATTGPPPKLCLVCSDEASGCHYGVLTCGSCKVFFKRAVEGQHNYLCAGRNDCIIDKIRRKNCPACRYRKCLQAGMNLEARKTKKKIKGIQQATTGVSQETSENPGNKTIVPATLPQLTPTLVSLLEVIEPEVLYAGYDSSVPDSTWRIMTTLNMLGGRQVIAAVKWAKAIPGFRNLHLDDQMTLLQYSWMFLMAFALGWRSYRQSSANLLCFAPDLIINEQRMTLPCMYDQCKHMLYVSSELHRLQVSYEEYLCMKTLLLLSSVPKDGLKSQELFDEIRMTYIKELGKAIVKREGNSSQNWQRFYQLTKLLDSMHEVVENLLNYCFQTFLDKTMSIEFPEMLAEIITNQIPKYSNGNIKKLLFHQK
pKi: −log10 of the molar value.
measured_endpoint: pKi

Reference set (2 entries):
>  <compound>
COc1ccc(NC(=O)O[C@@H]2[C@@H](C)c3c(cc(F)c(-c4cccc5c(Cl)c[nH]c45)c3F)NC2(C)C)cc1Cl

>  <pKi>
8.17

$$$$
>  <compound>
CNC(=O)O[C@@H]1[C@@H](C)c2c(cc(F)c(-c3cccc4cc[nH]c34)c2F)NC1(C)C (racemic)

>  <pKi>
8.52

$$$$

(P) CC(=O)c1cccc(NC(=O)O[C@@H]2[C@@H](C)c3c(cc(F)c(-c4cccc5cc[nH]c45)c3F)NC2(C)C)c1 (racemic)
(Q) CNC(=O)O[C@@H]1[C@@H](C)c2c(cc(F)c(-c3cccc4c(Cl)c[nH]c34)c2F)NC1(C)C (racemic)
(R) C[C@H]1c2c(cc(F)c(-c3cccc4cc[nH]c34)c2F)NC(C)(C)[C@@H]1OC(=O)Nc1ccc(C#N)cc1
Could you please order the items by pKi, going from the lowest number to the highest? Output spec: a listing of the labels in the requested order.
R, P, Q

* * *

- test_system: Glucocorticoid receptor (Homo sapiens, UniProt P04150)
- Assay type: cell-based, HepG2
- Description: Transrepression activity at GR expressed in IL-1beta- and TNFalpha-stimulated HepG2 cells assessed as inhibition of NFKB- or AP-1 mediated E-selectin transcription by luciferase reporter gene assay
pIC50: −log10 of the molar value.
measured_endpoint: pIC50

Here is how some compounds turned out for pIC50.
>  <compound>
C[C@H]1c2c(cc(F)c(-c3cccc4c(Cl)c[nH]c34)c2F)NC(C)(C)[C@@H]1OC(=O)NC1CCCCC1 (racemic)

>  <pIC50>
7.82

$$$$
>  <compound>
CC(=O)c1cccc(NC(=O)O[C@@H]2[C@@H](C)c3c(cc(F)c(-c4cccc5cc[nH]c45)c3F)NC2(C)C)c1 (racemic)

>  <pIC50>
7.31

$$$$
>  <compound>
C[C@H]1c2c(cc(F)c(-c3cccc4cc[nH]c34)c2F)NC(C)(C)[C@@H]1OC(=O)Nc1ccc2c(c1)OCO2

>  <pIC50>
8.07

$$$$
>  <compound>
COc1ccc(NC(=O)O[C@@H]2[C@@H](C)c3c(cc(F)c(-c4cccc5cc[nH]c45)c3F)NC2(C)C)cc1Cl

>  <pIC50>
8.12

$$$$
>  <compound>
C[C@H]1c2c(cc(F)c(-c3cccc4cc[nH]c34)c2F)NC(C)(C)[C@@H]1OC(=O)Nc1ccc(N(C)C)cc1

>  <pIC50>
8.08

$$$$

(P) C[C@H]1c2c(cc(F)c(-c3cccc4c(Cl)c[nH]c34)c2F)NC(C)(C)[C@@H]1OC(=O)Nc1ccc(C#N)cc1
(Q) C[C@H]1c2c(cc(F)c(-c3cccc4cc[nH]c34)c2F)NC(C)(C)[C@@H]1OC(=O)Nc1ccc(Cl)cc1
(R) C[C@H]1c2c(cc(F)c(-c3cccc4cc[nH]c34)c2F)NC(C)(C)[C@@H]1OC(=O)Nc1cccc(C#N)c1 (racemic)
Rank order required: pIC50, descending. Please reply with the labels ordered as requested. Many thanks.
P, R, Q
(P: 8.09, R: 7.89, Q: 7.36)

(a) CNC(=O)O[C@@H]1[C@@H](C)c2c(cc(F)c(-c3cccc4cc[nH]c34)c2F)NC1(C)C (racemic)
(b) C[C@H]1c2c(cc(F)c(-c3cccc4c(Cl)c[nH]c34)c2F)NC(C)(C)[C@@H]1OC(=O)NCc1ccccc1 (racemic)
(c) COc1ccc(NC(=O)O[C@@H]2[C@@H](C)c3c(cc(F)c(-c4cccc5c(Cl)c[nH]c45)c3F)NC2(C)C)cc1Cl
List items by pIC50 in falling order. # respond with the labels, arranged in the requested order
c, a, b
(c: 8.24, a: 8.00, b: 7.36)
